Assignment: determine reported pIC50 for the given molecules.
Test system: pERK in A375 cells
assay_details: In Cell Western (ICW) assay, pERK in A375 cells
Format: cell-based
condition_parameters: Homo sapiens, A-375, 3 h treatment
pIC50: −log10 of the molar value.

The examples below pair each entry with its known result.
COc1cc(-c2cccc(NS(=O)(=O)CCCF)c2F)cc2c(N3CCOC[C@H]3C)nc(-c3cnc(N)cc3F)nc12 [Example 135] :: 7.00 to 9.00
CCNc1ccc(-c2nc(N3CCOCC3)c3nc(-c4cccc(NS(=O)(=O)CCCF)c4F)ccc3n2)cn1 [Example 123] :: 7.00 to 9.00
COc1cc(-c2cccc(NS(=O)(=O)CCCF)c2F)cc2c(N3CCOCC3)nc(-c3ccc(NC(C)=O)cc3)nc12 [Example 125] :: 7.00 to 9.00
COc1cc(-c2cccc(NS(=O)(=O)CCCF)c2F)cc2c(N3CCOCC3)nc(-c3cnc(N)nc3)nc12 [Example 27] :: 7.00 to 9.00

Each molecule below has a reported value. Please supply its pIC50.
1. COc1cc(-c2c(F)ccc(NS(=O)(=O)CCCF)c2F)cc2c(N3CCOCC3)nc(-c3ccc(N)nc3)nc12 [Example 79]
2. CCCS(=O)(=O)Nc1cccc(-c2cc(OC)c3nc(-c4cnc(N)cc4C(F)(F)F)nc(N4CCOCC4)c3c2)c1F [Example 25]
3. COc1cc(-c2cccc(NS(=O)(=O)c3c(F)cccc3F)c2F)cc2c(N3CCOCC3)nc(-c3cnc4[nH]ccc4c3)nc12 [Example 16]

Reply text:
1. 7.00 to 9.00
2. 6.00 to 7.00
3. 6.00 to 7.00

====

target_desc: B-RAFV600E (Homo sapiens, UniProt P15056, V600E)
Sequence (P15056 416-766 V600E limits assumed): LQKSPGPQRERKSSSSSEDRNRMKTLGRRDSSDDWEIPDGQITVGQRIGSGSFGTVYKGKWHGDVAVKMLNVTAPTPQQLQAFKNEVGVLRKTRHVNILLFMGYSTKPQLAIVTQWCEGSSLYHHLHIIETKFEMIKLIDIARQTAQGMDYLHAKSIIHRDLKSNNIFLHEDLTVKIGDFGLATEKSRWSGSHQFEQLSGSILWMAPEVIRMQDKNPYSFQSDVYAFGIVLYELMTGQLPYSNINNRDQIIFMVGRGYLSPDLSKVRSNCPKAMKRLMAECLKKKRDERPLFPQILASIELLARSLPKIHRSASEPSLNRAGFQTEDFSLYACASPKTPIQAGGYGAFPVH
assay_details: B-RAFV600E radiometric assay
condition_parameters: read-out: Kinase assay B-Raf
Experimental: Compound inhibition for B-RAFV600E was determined through radiometric assay using a BRAF enzyme (Catalog No. 14-557, Millipore, USA) and MEK-K97M protein as a substrate (Catalog No. 0785-0000-1, ProqQinase GmbH, Germany). […] The phosphorylated protein product is detected by the scintillation counter Topcount® machine (Perkin Elmer). […] The labeled phosphorylated protein was measured in MicroBeta® Trilux Counter (Perkin Elmer). […]
pIC50: −log10 of the molar value.
Assignment: determine reported pIC50 for the given compounds.

The examples below pair each entry with its known result.
Cc1cc(N)ncc1-c1nc(N2CCOCC2)c2nc(-c3cccc(NS(=O)(=O)CCCF)c3F)ccc2n1 [Example 101] :: 7.00 to 9.00
Nc1ccc(-c2nc(N3CCOCC3)c3cc(-c4cccc(NS(=O)(=O)CCCF)c4F)cc(OCC4CC4)c3n2)cn1 [Example 57] :: 7.00 to 9.00
CC(C)Oc1cc(-c2cccc(NS(=O)(=O)CCCF)c2F)cc2c(N3CCOCC3)nc(-c3ccc(N)nc3)nc12 [Example 55] :: 7.00 to 9.00

Inquiry: Recall the recorded pIC50 for CCCS(=O)(=O)Nc1cccc(-c2cc(OC)c3nc(-c4ccc(N)nc4F)nc(N4CCOCC4)c3c2)c1F [Example 18] with B-RAFV600E (Homo sapiens, UniProt P15056, V600E) and state it.
Reply text: 6.00 to 7.00

====

Tested on: pERK in A375 cells
assay_details: In Cell Western (ICW) assay, pERK in A375 cells
Type: cell-based
condition_parameters: Homo sapiens, A-375, 3 h treatment
Description: Cell lines A375, A2058 and RKO obtained from the ATCC as provided above, were grown, and after attaining ˜80% confluency were trypsinized, centrifuged and resuspended in fresh media. […] The fluorescence emission was then read at 615 nm with an excitation wavelength of 340 nm using a Victor V5 Fluorometer (Perkin Elmer, US). […]
endpoint: IC50

The examples below pair each entry with its known result.
O=S(=O)(CCCF)Nc1cccc(-c2ccc3nc(-c4ccc(NCCCO)nc4)nc(N4CCOCC4)c3n2)c1F [Example 111] :: 0.1 to 1 µM
Cc1nc(N)ncc1-c1nc(N2CCOC[C@@H]2C)c2nc(-c3cccc(NS(=O)(=O)c4cc(F)ccc4F)c3F)ccc2n1 [Example 132] :: 0.1 to 1 µM
CCCS(=O)(=O)Nc1cccc(-c2cc(OC)c3nc(-c4ccc(NCCN)nc4)nc(N4CCOCC4)c3c2)c1F [Example 3] :: 0.001 to 0.1 µM

Inquiry: I am curious: what IC50 value has been reported for Cc1cc(N)ncc1-c1nc(N2CCOC[C@@H]2C)c2nc(-c3cccc(NS(=O)(=O)CCCF)c3F)ccc2n1 [Example 130] ?
Reply text: 0.1 to 1 µM

====

# IC50 measurements, system: PI3Kα (Homo sapiens, UniProt P42336)
# Sequence (P42336 whole entry, species assumed): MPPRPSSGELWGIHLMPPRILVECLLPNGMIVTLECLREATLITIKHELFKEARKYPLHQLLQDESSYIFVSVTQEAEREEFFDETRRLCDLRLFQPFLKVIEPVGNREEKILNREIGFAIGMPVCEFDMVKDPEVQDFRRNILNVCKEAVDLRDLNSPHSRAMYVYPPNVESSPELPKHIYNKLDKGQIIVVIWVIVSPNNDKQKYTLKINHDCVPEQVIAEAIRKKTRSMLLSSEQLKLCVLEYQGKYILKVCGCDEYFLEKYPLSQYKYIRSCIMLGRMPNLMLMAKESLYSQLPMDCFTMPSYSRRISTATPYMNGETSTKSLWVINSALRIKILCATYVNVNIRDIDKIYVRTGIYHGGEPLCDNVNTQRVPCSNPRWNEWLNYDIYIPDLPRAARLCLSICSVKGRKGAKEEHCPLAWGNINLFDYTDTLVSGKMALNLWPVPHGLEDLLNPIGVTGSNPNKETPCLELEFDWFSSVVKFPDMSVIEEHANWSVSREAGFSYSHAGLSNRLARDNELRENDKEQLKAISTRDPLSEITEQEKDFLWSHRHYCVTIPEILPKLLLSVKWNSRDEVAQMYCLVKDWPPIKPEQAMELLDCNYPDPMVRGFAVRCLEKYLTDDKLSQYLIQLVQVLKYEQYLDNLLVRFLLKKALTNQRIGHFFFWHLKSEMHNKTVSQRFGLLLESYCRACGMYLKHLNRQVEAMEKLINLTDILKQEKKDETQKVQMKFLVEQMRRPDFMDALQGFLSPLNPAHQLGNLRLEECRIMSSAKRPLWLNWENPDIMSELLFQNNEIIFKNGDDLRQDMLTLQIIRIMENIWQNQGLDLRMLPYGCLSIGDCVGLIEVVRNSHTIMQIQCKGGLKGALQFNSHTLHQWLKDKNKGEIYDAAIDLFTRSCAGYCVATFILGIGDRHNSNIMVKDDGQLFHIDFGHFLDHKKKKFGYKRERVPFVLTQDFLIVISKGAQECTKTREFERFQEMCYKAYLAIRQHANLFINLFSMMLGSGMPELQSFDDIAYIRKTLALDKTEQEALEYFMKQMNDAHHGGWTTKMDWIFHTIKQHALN
# Sequence (P27986 whole entry partner, species assumed): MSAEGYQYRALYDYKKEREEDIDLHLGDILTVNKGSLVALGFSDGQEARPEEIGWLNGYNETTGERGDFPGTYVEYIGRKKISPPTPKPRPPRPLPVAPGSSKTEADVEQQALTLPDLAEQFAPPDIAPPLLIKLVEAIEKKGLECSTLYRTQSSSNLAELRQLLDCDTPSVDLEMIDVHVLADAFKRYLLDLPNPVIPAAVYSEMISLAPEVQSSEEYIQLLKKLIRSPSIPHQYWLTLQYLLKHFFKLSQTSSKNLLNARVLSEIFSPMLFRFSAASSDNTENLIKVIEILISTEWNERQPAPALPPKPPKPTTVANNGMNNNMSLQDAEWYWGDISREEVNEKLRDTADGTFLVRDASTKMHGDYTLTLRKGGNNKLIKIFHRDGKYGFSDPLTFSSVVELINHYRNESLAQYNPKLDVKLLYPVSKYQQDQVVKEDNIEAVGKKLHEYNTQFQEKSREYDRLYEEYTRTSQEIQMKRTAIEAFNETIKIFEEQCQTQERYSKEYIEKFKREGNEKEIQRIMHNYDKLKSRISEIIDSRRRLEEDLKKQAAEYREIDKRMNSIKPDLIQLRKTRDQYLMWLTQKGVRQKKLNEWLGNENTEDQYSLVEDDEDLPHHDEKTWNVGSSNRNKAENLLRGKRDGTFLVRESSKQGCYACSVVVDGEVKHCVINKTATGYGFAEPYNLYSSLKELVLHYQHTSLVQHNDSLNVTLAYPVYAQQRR

CNC(=O)Nc1ccc(-c2nc(N3CCOCC3)c3cc(-c4cccc(NS(=O)(=O)CCCF)c4F)cc(OC)c3n2)cn1 :: 100 to 1000 nM

Each compound below has a reported value. Please supply its IC50.
1. COc1cc(-c2cccc(NS(=O)(=O)CCCF)c2F)cc2c(N3CCOC[C@H]3C)nc(-c3cnc(N)nc3)nc12
2. CNc1ccc(-c2nc(N3CCOCC3)c3nc(-c4cccc(NS(=O)(=O)CCCF)c4F)ccc3n2)cn1

Reply text:
100 to 1000 nM
1 to 100 nM

Inquiry: I am curious: what IC50 value has been reported for `Nc1ncc(-c2nc(N3CCOCC3)c3nc(-c4cccc(NS(=O)(=O)c5c(F)cccc5F)c4F)ccc3n2)cn1` ?
Reply text: 1 to 100 nM

====

target_desc: B-RAFV600E (Homo sapiens, UniProt P15056, V600E)
assay_details: B-RAFV600E radiometric assay
condition_parameters: read-out: Kinase assay B-Raf
pIC50: −log10 of the molar value.
endpoint: pIC50

The examples below pair each entry with its known result.
COc1cc(-c2cccc(NS(=O)(=O)CCCF)c2F)cc2c(N3CCOCC3)nc(-c3ccc(NS(C)(=O)=O)cc3)nc12 :: 6.00 to 7.00
CCS(=O)(=O)Nc1cccc(-c2cc(OC)c3nc(-c4cnc(N)nc4)nc(N4CCOCC4)c3c2)c1F :: 6.00 to 7.00
CCCNc1ncc(-c2nc(N3CCOCC3)c3nc(-c4cccc(NS(=O)(=O)CCCF)c4F)ccc3n2)cn1 :: 7.00 to 9.00
CCOc1cc(-c2cccc(NS(=O)(=O)CCCF)c2F)cc2c(N3CCOC[C@H]3C)nc(-c3cnc4[nH]ccc4c3)nc12 :: 7.00 to 9.00

Each molecule below has a reported value. Please supply its pIC50.
1. O=S(=O)(CCCF)Nc1cccc(-c2ccc3nc(-c4cccc5[nH]ncc45)nc(N4CCOCC4)c3n2)c1F
2. COc1cc(-c2c(F)ccc(NS(=O)(=O)CCCF)c2F)cc2c(N3CCOCC3)nc(-c3ccc(N)nc3)nc12
3. CCOc1cc(-c2cccc(NS(=O)(=O)CCCF)c2F)cc2c(N3CCOCC3)nc(-c3cnc(N)nc3)nc12
4. COc1cc(-c2cccc(NS(=O)(=O)CC(C)C)c2F)cc2c(N3CCOCC3)nc(-c3cnc(N)nc3)nc12

Reply text:
1: 7.00 to 9.00; 2: 7.00 to 9.00; 3: 7.00 to 9.00; 4: 7.00 to 9.00

Each molecule below has a reported value. Please supply its pIC50.
1. Cc1cc(-c2cccc(NS(=O)(=O)CCCF)c2F)cc2c(N3CCOCC3)nc(-c3cnc(N)nc3)nc12
2. CNC(=O)Nc1ccc(-c2nc(N3CCOCC3)c3cc(-c4cccc(NS(=O)(=O)CCCF)c4F)cc(OC)c3n2)cn1
3. COc1cc(-c2c(F)ccc(NS(=O)(=O)c3c(F)cccc3F)c2F)cc2c(N3CCOCC3)nc(-c3cnc(N)nc3)nc12
4. CCCS(=O)(=O)Nc1cccc(-c2ccc3nc(-c4cnc(N)nc4)nc(N4CCOCC4)c3n2)c1F
5. COc1cc(-c2cccc(NS(=O)(=O)CCCF)c2F)cc2c(N3CCOC[C@@H]3C)nc(-c3ccc(N)nc3)nc12
6. Nc1ccc(-c2nc(N3CCOCC3)c3nc(-c4cccc(NS(=O)(=O)c5c(F)cccc5F)c4F)ccc3n2)cn1

Reply text:
1: 7.00 to 9.00; 2: 7.00 to 9.00; 3: 7.00 to 9.00; 4: 6.00 to 7.00; 5: 7.00 to 9.00; 6: 7.00 to 9.00

====

Tested on: pERK in A375 cells
assay_details: In Cell Western (ICW) assay, pERK in A375 cells
Assay type: cell-based
condition_parameters: Homo sapiens, A-375, 3 h treatment
pIC50: −log10 of the molar value.
Assignment: determine reported pIC50 for the given compounds.

The examples below pair each entry with its known result.
CNC(=O)Nc1ccc(-c2nc(N3CCOCC3)c3cc(-c4cccc(NS(=O)(=O)CCCF)c4F)cc(OC)c3n2)cc1 [Example 32] :: 6.00 to 7.00
COc1cc(-c2cccc(NS(=O)(=O)c3c(F)cccc3F)c2F)cc2c(N3CCOCC3)nc(-c3cnc(N)nc3)nc12 [Example 13] :: 6.00 to 7.00
Nc1cc(C(F)(F)F)c(-c2nc(N3CCOCC3)c3nc(-c4cccc(NS(=O)(=O)CCCF)c4F)ccc3n2)cn1 [Example 94] :: 7.00 to 9.00
COc1cc(-c2c(F)ccc(NS(=O)(=O)CCCF)c2F)cc2c(N3CCOCC3)nc(-c3cnc(N)nc3)nc12 [Example 82] :: 7.00 to 9.00

With those in mind, consider the next compound.
Inquiry: I am curious: what pIC50 value has been reported for O=S(=O)(CCCF)Nc1cccc(-c2ccc3nc(-c4ccc(NCCO)nc4)nc(N4CCOCC4)c3n2)c1F [Example 99] ?
Reply text: 7.00 to 9.00

Data credit: patent US9499495B2
